Biological target: active p38 alpha enzyme (Upstate Biotechnology) (Homo sapiens)
Construct: purchased Upstate Biotechnology
Assay: p38α biochemical assay (ATP turnover, luminescent detection, Cambrex PKlight)
Details: p38α biochemical assay, Table 1 Biological Activity
Protocol: The p38α biochemical assay employed is based on measurement of total ATP turnover following enzyme incubation with substrate in the presence of ATP with the use of a luminescent detection reagent (Cambrex PKlight). […] The final volume was 7.5005 μL as prepared prepared from the addition of 5 ul of kinase reaction (p38 alpah+MapkapK2+ATP) with 0.0005 μL compound dissolved in DMSO, and 2.5 ul of the detection reagent. […] Assay is read using a Perkin Elmer Viewlux.
assay metric: IC50

// query Give the observed IC50 of CC(C)NC(=O)c1csc(-c2c(-c3ccc(F)cc3)noc2CNC(=O)c2ccc(OCc3ccccc3)cc2)n1 for active p38 alpha enzyme (Upstate Biotechnology) (Homo sapiens).
// result > 1000 nM

// query Give the observed IC50 of O=C(NCC1CC1)c1csc(-c2c(-c3ccc(F)cc3)n[nH]c2C2CCNCC2)n1 for active p38 alpha enzyme (Upstate Biotechnology) (Homo sapiens).
// result ≤ 1000 nM

// query Give the observed IC50 of Cc1onc(-c2ccc(Cl)cc2)c1-c1ccn(C(=O)NC2CC2)n1 for active p38 alpha enzyme (Upstate Biotechnology) (Homo sapiens).
// result > 1000 nM

// query Give the observed IC50 of CC(C)NC(=O)c1csc(-c2oc(CN3CCN(C(=O)Cc4ccc(Br)cc4)CC3)nc2-c2ccc(F)cc2)n1 for active p38 alpha enzyme (Upstate Biotechnology) (Homo sapiens).
// result ≤ 1000 nM

====

Target: active p38 alpha enzyme (Upstate Biotechnology) (Homo sapiens, UniProt Q16539)
Construct: purchased Upstate Biotechnology
Sequence (Q16539 whole entry): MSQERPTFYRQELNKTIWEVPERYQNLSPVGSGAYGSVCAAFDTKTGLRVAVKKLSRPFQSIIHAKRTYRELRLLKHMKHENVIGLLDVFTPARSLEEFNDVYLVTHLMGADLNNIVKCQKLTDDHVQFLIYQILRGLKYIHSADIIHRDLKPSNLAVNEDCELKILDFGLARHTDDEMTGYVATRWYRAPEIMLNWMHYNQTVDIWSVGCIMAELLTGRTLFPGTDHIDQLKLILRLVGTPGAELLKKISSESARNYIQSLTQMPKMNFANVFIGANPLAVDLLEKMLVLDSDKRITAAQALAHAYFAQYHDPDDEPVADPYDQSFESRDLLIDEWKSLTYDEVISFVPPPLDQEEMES
Experiment: p38α biochemical assay (ATP turnover, luminescent detection, Cambrex PKlight)
Conditions: p38α biochemical assay, Table 1 Biological Activity
pIC50: −log10 of the molar value.
assay metric: pIC50

// query Give reported pIC50 value for CC(C)NC(=O)c1csc(-c2c(-c3ccc(F)cc3)noc2CNC(=O)c2ncc[nH]2)n1
// result < 6.00

// query Give reported pIC50 value for COc1ccc(C(=O)NCc2onc(-c3ccc(F)cc3)c2-c2nc(C(=O)NC(C)C)cs2)cc1
// result < 6.00

// query Give reported pIC50 value for CC(=O)c1cccc(C(=O)NCc2nc(-c3ccc(F)cc3)c(-c3nc(C(=O)NC(C)C)cs3)o2)c1
// result < 6.00

// query Give reported pIC50 value for CC(C)NC(=O)c1csc(-c2oc(CN3CCN(C(=O)c4cc(O)c(O)c(O)c4)CC3)nc2-c2ccc(F)cc2)n1
// result ≥ 6.00

// query Give reported pIC50 value for CC(C)NC(=O)c1csc(-c2oc(CN3CCN(C(=O)c4cnc[nH]4)CC3)nc2-c2ccc(F)cc2)n1
// result ≥ 6.00

// query Give reported pIC50 value for Cc1nc(-c2ccc(F)cc2)c(-c2nc(C(=O)NC3CCC3)cs2)s1
// result ≥ 6.00

// query Give reported pIC50 value for CC(C)NC(=O)c1csc(-c2c(-c3ccc(F)cc3)noc2CNC(=O)CNC(=O)OC(C)(C)C)n1
// result < 6.00

====

Kindly state pIC50 for each of the entries shown.
Target: active p38 alpha enzyme (Upstate Biotechnology) (Homo sapiens)
Construct: purchased Upstate Biotechnology
Test: p38α biochemical assay (ATP turnover, luminescent detection, Cambrex PKlight)
Details: p38α kinase; Table 1 Biological Activity
Method: The p38α biochemical assay employed is based on measurement of total ATP turnover following enzyme incubation with substrate in the presence of ATP with the use of a luminescent detection reagent (Cambrex PKlight). […] The final volume was 7.5005 μL as prepared prepared from the addition of 5 ul of kinase reaction (p38 alpah+MapkapK2+ATP) with 0.0005 μL compound dissolved in DMSO, and 2.5 ul of the detection reagent. […] Assay is read using a Perkin Elmer Viewlux.
pIC50: −log10 of the molar value.

// query Give reported pIC50 value for COc1ccncc1NCc1onc(-c2ccc(F)cc2)c1-c1nc(C(=O)NC(C)C)cs1 [Example 1650]
// result < 6.00

// query Give reported pIC50 value for Cc1nc(-c2ccc(F)cc2)c(-c2nc(C(=O)NCc3cccs3)cs2)s1 [Example 1743]
// result ≥ 6.00

// query Give reported pIC50 value for Cc1nc(Br)sc1C(=O)N1CCC(c2[nH]nc(-c3ccc(F)cc3)c2-c2nc(C(=O)NC(C)C)cs2)CC1 [Example 1016]
// result < 6.00

// query Give reported pIC50 value for CC(C)NC(=O)c1csc(-c2c(-c3ccc(F)cc3)noc2CNCCc2cccc(F)c2)n1 [Example 1460]
// result < 6.00

// query Give reported pIC50 value for CC(C)NC(=O)c1csc(-c2oc(CNCc3cccc(Cl)c3)nc2-c2ccc(F)cc2)n1 [Example 1130]
// result < 6.00

// query Give reported pIC50 value for COc1ccc(C(=O)N2CCC(c3[nH]nc(-c4ccc(F)cc4)c3-c3nc(C(=O)NC(C)C)cs3)CC2)c(O)c1 [Example 902]
// result < 6.00

// query Give reported pIC50 value for COc1cc(CNCc2onc(-c3ccc(F)cc3)c2-c2nc(C(=O)NC(C)C)cs2)cc(OC)c1 [Example 1489]
// result < 6.00

// query Give reported pIC50 value for CC(C)NC(=O)c1csc(-c2c(-c3ccc(F)cc3)n[nH]c2C2CCN(C(=O)c3cc(Cl)ccc3[N+](=O)[O-])CC2)n1 [Example 989]
// result < 6.00

// query Give reported pIC50 value for Cc1nc(-c2ccc(F)cc2)c(-c2nc(C(=O)N(CCO)Cc3ccccc3)cs2)s1 [Example 1884]
// result < 6.00

// query Give reported pIC50 value for Cc1ccc(CCNC(=O)c2csc(-c3sc(C)nc3-c3ccc(F)cc3)n2)cc1 [Example 1768]
// result < 6.00

// query Give reported pIC50 value for COc1ccc(OC)c(CCNC(=O)c2csc(-c3sc(C)nc3-c3ccc(F)cc3)n2)c1 [Example 1823]
// result ≥ 6.00

// query Give reported pIC50 value for COc1ccc(NCc2nc(-c3ccc(F)cc3)c(-c3nc(C(=O)NC(C)C)cs3)o2)cc1OC [Example 1148]
// result < 6.00

// query Give reported pIC50 value for Cc1nc(-c2ccc(F)cc2)c(-c2nc(C(=O)N(CCO)[C@H](C)c3ccccc3)cs2)s1 [Example 1895]
// result < 6.00

// query Give reported pIC50 value for CC(C)NC(=O)c1csc(-c2c(-c3ccc(F)cc3)n[nH]c2C2CCN(C(=O)c3cccc4ccccc34)CC2)n1 [Example 908]
// result ≥ 6.00

// query Give reported pIC50 value for CC(C)NC(=O)c1csc(-c2c(-c3ccc(F)cc3)n[nH]c2C2CCN(C(=O)C(NC(=O)OC(C)(C)C)C(C)C)CC2)n1 (stereo not drawn) [Example 1013]
// result < 6.00

Origin of the recorded values: patent US20060252807A1
